clearance values by entry
experiment: Rat pharmacokinetics; assay type: in vivo; settings: rat, plasma, iv, 1 mg/kg; read-out: PK: Cl
Response body: numeric value in mL/min/kg, unit text excluded.

Example entries and their recorded answers appear below.
1. Cc1cn(-c2ccc(F)c(CC(=O)NCC(C)(C)O)c2)c2c(Cl)cc(Cl)cc12 [Compound 421] : 38.5
2. O=C(Cc1cc(-n2cc(Cl)c3cc(Cl)cc(Cl)c32)ccc1F)NCCO [Compound 627] : 65.8
3. O=C(Cc1cncc(-n2cc(Cl)c3cc(Cl)cc(Cl)c32)c1)N[C@@H]1COC[C@H]1O [Compound 661] : 35.7
4. O=C(Cc1nccc(-n2cc(Cl)c3cc(Cl)cc(Cl)c32)n1)NC1COCC1O (stereo not drawn) [Compound 760] : 60.1
5. O=C(Cc1cc(-n2cc(C(F)(F)F)c3cc(Cl)cc(Cl)c32)ncn1)NCCO [Compound 843] : 6.6

// next item, clearance requested
Notebook: O=C(Cc1nccc(-n2cc(Cl)c3cc(Cl)cc(Cl)c32)n1)NCCO [Compound 767] , clearance read as 42.5
